- system-under-test: human α-thrombin (Haematologic Technologies) (human), P00734
- method-notes: thrombin inhibition; sulfated at Y33
- particulars: chains peptide; modification not given
property: pKi
Note: pKi values are expressed as the negative base-10 logarithm of concentration in M.

# input Note down pKi recorded for SEQ ID No:2 (MDL-1) Y33 (sulfated at Y33) (peptide) YPERDSAKDGNEEQERALPVNVQERGEVADADYDDYDEEGTTPTVDPTAQTARPRLQGNQS
# output 8.44
